SUBJECT OF TEST: NPP (nucleotide pyrophosphatase/phosphodiesterase) (Xanthomonas citri, UniProt A0A0U5FM15, L123A)
APPLIED CONDITIONS: read-out: average; average over substrates pNPP, Me-pNPP, bis-pNPP, dT-5'-pNPP (subsaturating); 0.1 M Tris-HCl pH 8.0, 0.5 M NaCl, 100 µM ZnCl2, 25 °C; competitive
pKi: −log10 of the molar value.
MEASURED PARAMETER: pKi

> print(dat)
                             compound  test.value
1  [O]=[V]([OH])([OH])[OH] [vanadate]        3.81

====

SUBJECT OF TEST: NPP (nucleotide pyrophosphatase/phosphodiesterase) (Xanthomonas citri, UniProt A0A0U5FM15, T90S)
APPLIED CONDITIONS: read-out: average; average over substrates pNPP, Me-pNPP, bis-pNPP, dT-5'-pNPP (subsaturating); 0.1 M Tris-HCl pH 8.0, 0.5 M NaCl, 100 µM ZnCl2, 25 °C; competitive
MEASURED PARAMETER: Ki (µM)

> print(dat)
                             molecule  output.unit  test.value
1  [O]=[V]([OH])([OH])[OH] [vanadate]           µM         340
